The following molecules are listed with their measured cell viability values.
Tested on: P12-Ichikawa
ASSAY_TEXT: cell viability relative to DMSO control; higher = less cytotoxic
SETTINGS: HPLM + 10% dialyzed FBS; 48 h; 0.0211 µM
READOUT_KIND: cell viability (%)

>>> print(df.to_string())
                               given_smiles  result_units  observed_result
0  CCC(=O)OCC(=O)[C@@]1(OC(=O)CC)[C@@H](C)C[C@H]2[C@@H]3CCC4=CC(=O)C=C[C@]4(C)[C@@]3(F)[C@@H](O)C[C@@]21C             %              107
1                [NH2][Pt]([NH2])([Cl])[Cl]             %             90.3
2  COc1cc(C(C)=O)ccc1OCCCN1CCC(c2noc3cc(F)ccc23)CC1             %              127

---

System: SEM cells
ASSAY_TEXT: cell viability relative to DMSO control; higher = less cytotoxic
SETTINGS: HPLM + 10% dialyzed FBS; 48 h; 0.569 µM
READOUT_KIND: cell viability (%)

>>> print(df.to_string())
                               given_smiles     system    readout_kind  observed_result
0      OCc1ccc(-c2nn(Cc3ccccc3)c3ccccc23)o1  SEM cells  cell viability              117
1                CCN(CC)C(=S)SSC(=S)N(CC)CC  SEM cells  cell viability             55.2
2  Cn1c(Nc2ccc(C(F)(F)F)cc2)nc2cc(Oc3ccnc(-c4nc(C(F)(F)F)c[nH]4)c3)ccc21  SEM cells  cell viability              109
3  O=C1\C=C/C[C@@H]2[C@H]3CCCN4CCC[C@@H](CN12)[C@@H]34  SEM cells  cell viability              117
4  O=C1C[C@@H](c2ccc(O)cc2)Oc2cc(O)cc(O)c21  SEM cells  cell viability              125
5  CC(=O)N1CCN(c2ccc(OC[C@H]3CO[C@](Cn4ccnc4)(c4ccc(Cl)cc4Cl)O3)cc2)CC1  SEM cells  cell viability             90.9
6  COc1cc2nc(N3CCCN(C)CC3)nc(NC3CCN(Cc4ccccc4)CC3)c2cc1OC  SEM cells  cell viability              125
7  NC(=O)c1ncn([C@@H]2O[C@H](CO)[C@@H](O)[C@H]2O)n1  SEM cells  cell viability              101
8        CC(C)(C)c1cc(C=C(C#N)C#N)cc(Br)c1O  SEM cells  cell viability              114
9  CC(C)n1nc(-c2ccc3oc(N)nc3c2)c2c(N)ncnc21  SEM cells  cell viability             31.8

---

Tested on: NOMO1
ASSAY_TEXT: cell viability relative to DMSO control; higher = less cytotoxic
SETTINGS: RPMI 5 mM glucose + 10% FBS; 48 h; 15.4 µM
Note to self: use MET only for cell viability readings below 80%; a reading exactly at 80% still gets NOT MET.

In [3]: df
Out[3]:
                               given_smiles  discrete_label
0  C[C@@H](O)[C@@H]1[C@H]2[C@@H](C)\C(=C(/N2C1=O)C(=O)OCOC(=O)C(C)(C)C)SC3CN(C3)/C4=N/CCS4         NOT MET
1  CC(=O)OCC(=O)[C@@]12\N=C(C)/O[C@@H]1C[C@H]3[C@@H]4CCC/5=C/C(=O)/C=C\[C@]5(C)[C@H]4[C@@H](O)C[C@]23C         NOT MET
2      CN(C/C=C/C#CC(C)(C)C)Cc1cccc2ccccc12         NOT MET
3  CN1CCC(CC1)COC2=CN=C(N=C2)C3=CC(=CC=C3)CN4/N=C(\C=C/C4=O)C5=CC(=CC=C5)C#N         NOT MET
4  CC(C)C[C@H](NC(=O)[C@@H](NC(=O)c1cccc(-c2ccccc2)n1)[C@@H](C)O)B(O)O             MET
5  Cc1cc(Nc2nc(N[C@@H](C)c3ncc(F)cn3)ncc2Cl)n[nH]1             MET
6  CCC(=O)OCC(=O)[C@@]1(OC(=O)CC)[C@@H](C)C[C@H]2[C@@H]3CCC4=CC(=O)C=C[C@]4(C)[C@@]3(F)[C@@H](O)C[C@@]21C             MET
7  O=C1Nc2ccc(Cl)cc2[C@@](C#CC2CC2)(C(F)(F)F)O1             MET
